- tested.on: h-cGAS (Homo sapiens, UniProt Q8N884)
- Sequence (Q8N884 whole entry): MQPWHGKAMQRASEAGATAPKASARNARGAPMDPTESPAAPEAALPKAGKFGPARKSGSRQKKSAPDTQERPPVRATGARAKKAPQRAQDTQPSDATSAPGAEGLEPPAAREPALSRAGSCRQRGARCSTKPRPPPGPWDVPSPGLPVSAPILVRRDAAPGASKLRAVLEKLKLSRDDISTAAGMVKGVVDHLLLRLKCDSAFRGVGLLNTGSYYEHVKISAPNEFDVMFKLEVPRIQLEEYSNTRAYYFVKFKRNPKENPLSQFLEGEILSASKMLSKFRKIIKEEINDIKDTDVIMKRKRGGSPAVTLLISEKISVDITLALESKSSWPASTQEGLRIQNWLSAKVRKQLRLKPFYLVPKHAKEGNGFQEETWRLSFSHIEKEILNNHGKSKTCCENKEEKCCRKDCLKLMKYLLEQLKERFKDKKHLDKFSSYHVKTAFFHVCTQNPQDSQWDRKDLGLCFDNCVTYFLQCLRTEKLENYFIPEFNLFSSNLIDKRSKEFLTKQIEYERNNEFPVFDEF
- test: Cell-free human cGAS enzyme inhibition assay (ATP depletion, Kinase-Glo Max)
- Format: biochemical
- measurement.context: 3 h; read-out: h-cGAS, conc. 10 μM
- Method: Cell-free mouse and human cGAS enzyme inhibition assay (Table 2). […] The luminescence was recorded in relative light units (RLUs) using a Biotek Synergy H1 Hybrid plate reader (BioTek, Winooski, VT). […] All reactions were run in triplicates and calculated using GraphPad Prism 9. […]
Listed compounds paired with reported inhibition at 10 µM
test.readout: inhibition at 10 µM

> print(dat)
                                smiles.code  measured.value
1  O=C(CO)N1CCc2c(sc3c(Cl)c(Cl)cc(-c4cccnc4)c23)C1        0 to 24%
2  Cn1cc(-c2cc(Cl)c(Cl)c3oc4c(c23)CCN(C(=O)CN)C4)cn1      75 to 100%
3  O=C(CO)N1CCc2c(sc3c(Cl)c(Cl)cc(-c4cn[nH]c4)c23)C1       25 to 49%
4  Cn1cc(-c2cc(Cl)c(Cl)c3sc4c(c23)CN(C(=O)CN)CC4)cn1      75 to 100%
5  Cn1c2c(c3c(O)cc(Cl)c(F)c31)CN(C(=O)CO)CC2      75 to 100%
6  Nc1ccc(-c2cc(Cl)c(Cl)c3[nH]c4c(c23)CN(C(=O)[C@@H]2CCCN2)CC4)cn1      75 to 100%
7  Cn1c2c(c3c(-c4ccc(O)nc4)cc(Cl)c(F)c31)CN(C(=O)CO)CC2        0 to 24%
8  O=C(CO)N1CCc2oc3c(Cl)c(Cl)cc(-c4cn[nH]c4)c3c2C1      75 to 100%

Entry source: patent US20250163052A1
